# TARGET_DESC: BRG-1 (Homo sapiens)
# Sequence (P51532 whole entry): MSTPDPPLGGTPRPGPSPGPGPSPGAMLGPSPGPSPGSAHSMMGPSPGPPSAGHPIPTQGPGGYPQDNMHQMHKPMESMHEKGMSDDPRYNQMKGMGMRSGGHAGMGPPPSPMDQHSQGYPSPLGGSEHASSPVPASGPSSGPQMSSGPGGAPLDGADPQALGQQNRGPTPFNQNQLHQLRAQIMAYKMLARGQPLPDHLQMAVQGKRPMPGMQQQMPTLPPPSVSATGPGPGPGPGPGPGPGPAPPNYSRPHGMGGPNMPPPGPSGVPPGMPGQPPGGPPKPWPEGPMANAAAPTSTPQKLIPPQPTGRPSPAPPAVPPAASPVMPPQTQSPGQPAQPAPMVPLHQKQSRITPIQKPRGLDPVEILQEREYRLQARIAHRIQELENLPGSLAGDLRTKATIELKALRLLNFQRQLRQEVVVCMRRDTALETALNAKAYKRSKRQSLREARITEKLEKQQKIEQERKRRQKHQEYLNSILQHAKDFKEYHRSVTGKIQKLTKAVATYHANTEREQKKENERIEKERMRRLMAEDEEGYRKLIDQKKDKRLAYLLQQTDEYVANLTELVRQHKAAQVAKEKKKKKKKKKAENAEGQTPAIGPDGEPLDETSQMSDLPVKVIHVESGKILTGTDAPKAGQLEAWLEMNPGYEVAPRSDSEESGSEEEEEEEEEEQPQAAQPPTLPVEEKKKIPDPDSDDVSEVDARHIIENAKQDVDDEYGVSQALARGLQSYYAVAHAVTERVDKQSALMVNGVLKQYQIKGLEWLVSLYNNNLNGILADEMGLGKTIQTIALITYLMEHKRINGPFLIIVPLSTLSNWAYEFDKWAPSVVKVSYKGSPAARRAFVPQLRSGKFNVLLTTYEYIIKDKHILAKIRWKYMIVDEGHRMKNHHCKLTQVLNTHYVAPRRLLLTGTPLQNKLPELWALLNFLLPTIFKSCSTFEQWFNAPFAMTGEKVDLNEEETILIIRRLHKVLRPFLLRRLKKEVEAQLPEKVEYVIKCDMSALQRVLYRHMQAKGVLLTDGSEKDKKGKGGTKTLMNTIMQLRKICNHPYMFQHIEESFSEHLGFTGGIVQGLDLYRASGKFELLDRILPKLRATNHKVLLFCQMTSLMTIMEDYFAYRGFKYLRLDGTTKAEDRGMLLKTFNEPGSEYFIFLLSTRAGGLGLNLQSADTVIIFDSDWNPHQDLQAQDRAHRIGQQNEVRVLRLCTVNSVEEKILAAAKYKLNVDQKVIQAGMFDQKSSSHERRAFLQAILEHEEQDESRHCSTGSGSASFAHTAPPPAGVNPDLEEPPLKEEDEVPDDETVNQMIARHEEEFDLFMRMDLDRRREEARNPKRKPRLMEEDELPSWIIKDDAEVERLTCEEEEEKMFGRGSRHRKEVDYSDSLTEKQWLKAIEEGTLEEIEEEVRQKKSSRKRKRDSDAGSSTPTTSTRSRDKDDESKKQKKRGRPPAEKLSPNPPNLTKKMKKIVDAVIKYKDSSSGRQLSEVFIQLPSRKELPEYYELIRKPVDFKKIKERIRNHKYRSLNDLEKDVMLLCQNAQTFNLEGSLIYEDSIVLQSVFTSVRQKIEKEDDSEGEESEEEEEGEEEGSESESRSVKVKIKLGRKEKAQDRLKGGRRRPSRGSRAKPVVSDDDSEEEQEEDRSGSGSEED
# ASSAY_OVERVIEW: ATPase catalytic activity of BRG-1 (ADP-Glo in vitro biochemical assay)
# ASSAY_CONTEXT: Table 5
METRIC: BRG1 Max % Inhibition

In [3]: df
Out[3]:
                                smiles_code                 metric  result
0  CCC[C@H](NC(=O)c1cccc(S(=O)(=O)N(C)C)c1)C(=O)Nc1nc(-c2ccccc2)cs1  BRG1 Max % Inhibition    >60%
1  CN(C)S(=O)(=O)c1cccc(C(=O)NCC(=O)Nc2nc(-c3ccccc3Br)cs2)c1  BRG1 Max % Inhibition    >60%
2  Cc1ccccc1-c1csc(NC(=O)CNC(=O)c2cccc(S(=O)(=O)N(C)C)c2)n1  BRG1 Max % Inhibition    >60%

###

# maps each entry to its IC50
# TARGET_DESC: BRM (Homo sapiens, UniProt P51531)
# Sequence (P51531 whole entry): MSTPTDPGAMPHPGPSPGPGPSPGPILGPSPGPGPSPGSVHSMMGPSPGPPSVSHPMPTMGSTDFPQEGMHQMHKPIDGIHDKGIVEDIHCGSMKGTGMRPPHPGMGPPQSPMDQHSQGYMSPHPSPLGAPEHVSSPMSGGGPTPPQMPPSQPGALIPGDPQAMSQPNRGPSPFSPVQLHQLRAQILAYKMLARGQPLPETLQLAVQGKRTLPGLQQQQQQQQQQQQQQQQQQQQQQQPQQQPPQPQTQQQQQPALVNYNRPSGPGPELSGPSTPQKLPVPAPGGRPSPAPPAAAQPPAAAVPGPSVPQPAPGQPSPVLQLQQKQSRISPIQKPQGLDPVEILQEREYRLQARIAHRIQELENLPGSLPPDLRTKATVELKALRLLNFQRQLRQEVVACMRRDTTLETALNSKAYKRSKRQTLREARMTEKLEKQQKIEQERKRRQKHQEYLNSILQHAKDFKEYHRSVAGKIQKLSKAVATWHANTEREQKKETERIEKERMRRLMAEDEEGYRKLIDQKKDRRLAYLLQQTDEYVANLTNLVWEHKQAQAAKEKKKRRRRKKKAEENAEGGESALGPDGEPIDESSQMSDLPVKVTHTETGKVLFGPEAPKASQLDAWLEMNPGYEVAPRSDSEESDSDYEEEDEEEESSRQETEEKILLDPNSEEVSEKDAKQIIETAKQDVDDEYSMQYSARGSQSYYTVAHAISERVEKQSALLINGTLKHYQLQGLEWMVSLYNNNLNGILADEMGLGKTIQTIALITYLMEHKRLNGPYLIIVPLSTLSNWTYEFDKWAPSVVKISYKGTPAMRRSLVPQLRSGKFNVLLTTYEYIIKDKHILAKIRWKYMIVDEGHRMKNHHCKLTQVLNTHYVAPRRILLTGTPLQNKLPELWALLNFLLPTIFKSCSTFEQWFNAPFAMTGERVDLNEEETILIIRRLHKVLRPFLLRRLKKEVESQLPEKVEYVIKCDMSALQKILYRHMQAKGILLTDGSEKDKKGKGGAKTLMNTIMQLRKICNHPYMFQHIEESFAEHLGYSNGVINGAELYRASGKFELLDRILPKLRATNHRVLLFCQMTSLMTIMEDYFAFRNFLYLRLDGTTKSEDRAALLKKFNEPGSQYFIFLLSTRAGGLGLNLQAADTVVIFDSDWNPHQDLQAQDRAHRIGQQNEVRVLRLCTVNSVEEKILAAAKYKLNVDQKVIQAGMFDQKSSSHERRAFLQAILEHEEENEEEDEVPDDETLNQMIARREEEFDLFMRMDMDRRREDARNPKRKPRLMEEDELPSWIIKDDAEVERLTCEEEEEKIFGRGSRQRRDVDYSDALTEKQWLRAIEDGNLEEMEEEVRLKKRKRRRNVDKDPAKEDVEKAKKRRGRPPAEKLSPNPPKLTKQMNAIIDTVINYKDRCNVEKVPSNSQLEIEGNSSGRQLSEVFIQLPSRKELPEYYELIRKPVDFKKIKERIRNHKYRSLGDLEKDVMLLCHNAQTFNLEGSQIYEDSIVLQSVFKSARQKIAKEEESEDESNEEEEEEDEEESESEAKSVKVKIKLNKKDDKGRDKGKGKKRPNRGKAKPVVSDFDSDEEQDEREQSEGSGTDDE
METRIC: IC50

                                smiles_code          result
0  Cn1cnc(-c2cccc(-c3csc(NC(=O)CNC(=O)c4ccc(N)cc4)n3)c2)c1  100 to 1000 nM
1  Nc1ccc(C(=O)NCC(=O)Nc2nc(-c3cccc(-c4ccn(CC(=O)O)n4)c3)cs2)cc1  100 to 1000 nM
2  CN(CC(=O)O)c1cc(-c2cccc(-c3csc(NC(=O)CNC(=O)c4ccc(N)cc4)n3)c2)ccn1        < 100 nM
3  Nc1ccc(C(=O)NCC(=O)Nc2nc(-c3cccc(-c4ccc(CO)cc4)c3)cs2)cc1        < 100 nM

###

Reported IC50, UniProtKB P51531.
METRIC: IC50

                                    molecule       result
 0  CC(=O)N(C)c1cc(-c2cccc(-c3csc(NC(=O)CNC(=O)c4ccc(N)cc4)n3)c2)ccn1     < 0.1 µM
 1  Nc1ccc(C(=O)NCC(=O)Nc2nc(-c3cccc(-c4cccc(O)c4)c3)cs2)cc1     < 0.1 µM
 2  COC(=O)N1CCC[C@H](c2csc(NC(=O)CNC(=O)c3ccc(N)cc3)n2)C1  0.1 to 1 µM
 3  CNc1ccc(C(=O)NCC(=O)Nc2nc(-c3cccc(-c4ccncc4)c3)cs2)cc1     < 0.1 µM
 4  CSCC[C@H](NC(=O)c1ccc(N)cc1)C(=O)Nc1nc(-c2cccc(-c3nnco3)c2)cs1     < 0.1 µM
 5  Nc1ccc(C(=O)NCC(=O)Nc2nc(-c3cccc(-c4ccc(O)cc4)c3)cs2)cc1     < 0.1 µM
 6  Nc1ccc(C(=O)NCC(=O)Nc2nc(-c3cccc(-c4cccc(CO)c4)c3)cs2)cc1     < 0.1 µM
 7  COC(=O)c1cccc(-c2csc(NC(=O)CNC(=O)c3cccc(S(=O)(=O)N(C)C)c3)n2)c1       < 1 µM
 8  Cc1nnc(C(=O)NC(C)(C)c2cc(-c3cccc(-c4csc(NC(=O)CNC(=O)c5ccc(N)cc5)n4)c3)ccn2)o1  0.1 to 1 µM
 9  CN(C)C1CCCN(c2cc(-c3cccc(-c4csc(NC(=O)CNC(=O)c5ccc(N)cc5)n4)c3)ccn2)C1 (stereo not drawn)  0.1 to 1 µM
10  Nc1ccc(C(=O)NCC(=O)Nc2nc(-c3cccc(N4CCOCC4)c3)cs2)cc1  0.1 to 1 µM
11  NCCn1ccc2ccc(-c3csc(NC(=O)CNC(=O)c4ccc(N)cc4)n3)cc2c1=O  0.1 to 1 µM
12  Nc1ccc(C(=O)NCC(=O)Nc2nc(-c3cccc(-c4ccncc4)c3)cs2)nc1     < 0.1 µM
13  CN(C)CCn1ccc2ccc(-c3csc(NC(=O)CNC(=O)c4ccc(N)cc4)n3)cc2c1=O  0.1 to 1 µM
14  CNC(=O)c1cccc(-c2cccc(-c3csc(NC(=O)CNC(=O)c4ccc(N)cc4)n3)c2)c1  0.1 to 1 µM
15  Nc1ccc(C(=O)NCC(=O)Nc2nc(-c3cccc(CCc4ccncc4)c3)cs2)cc1     < 0.1 µM
16  CN(C)S(=O)(=O)c1cccc(C(=O)NCC(=O)Nc2nc(-c3ccc4c(c3)OCCO4)cs2)c1   1 to 10 µM
17  Nc1ccc(C(=O)NCC(=O)Nc2nc(-c3ccc(O)cc3)cs2)cc1  0.1 to 1 µM
18  CN(C)CCn1cc(-c2cccc(-c3csc(NC(=O)CNC(=O)c4ccc(N)cc4)n3)c2)ccc1=O  0.1 to 1 µM
19  CN(C)C(=O)c1ccc(-c2cccc(-c3csc(NC(=O)CNC(=O)c4ccc(N)cc4)n3)c2)cc1  0.1 to 1 µM
20  CN1CCN(c2cccc(-c3csc(NC(=O)CNC(=O)c4ccc(N)cc4)n3)c2)CC1=O  0.1 to 1 µM
21  CN(C)S(=O)(=O)c1cccc(C(=O)NCC(=O)Nc2nc(-c3cccc(C#N)c3)cs2)c1   1 to 10 µM
22  CC(C)c1cc(-c2cccc(-c3csc(NC(=O)CNC(=O)c4ccc(N)cc4)n3)c2)ccn1     < 0.1 µM
23  CSCC[C@H](NC(=O)c1cccc(S(=O)(=O)C(C)C)c1)C(=O)Nc1nc(-c2ccccc2)cs1   1 to 10 µM
24  CC(C)(N)Cn1ccc(-c2cccc(-c3csc(NC(=O)CNC(=O)c4ccc(N)cc4)n3)c2)n1  0.1 to 1 µM
25  N#Cc1ccc(-c2cccc(-c3csc(NC(=O)CNC(=O)c4ccc(N)cc4)n3)c2)cc1     < 0.1 µM
26  COC(=O)Cn1cc(-c2cccc(-c3csc(NC(=O)CNC(=O)c4ccc(N)cc4)n3)c2)cn1  0.1 to 1 µM
27  Nc1ccc(C(=O)NCC(=O)Nc2nc(-c3cccc(COC4CCOCC4)c3)cs2)cc1  0.1 to 1 µM
28  CN(C)CCNc1cc(-c2cccc(-c3csc(NC(=O)CNC(=O)c4ccc(N)cc4)n3)c2)ccn1  0.1 to 1 µM
29  Nc1ccc(C(=O)NCC(=O)Nc2nc(-c3cccc(-c4ccnc(N5CCCC(N)C5)c4)c3)cs2)cc1 (stereo not drawn)  0.1 to 1 µM
